Molecular target: serotonin 2 receptor (Rattus norvegicus)
Sequence (P14842 whole entry): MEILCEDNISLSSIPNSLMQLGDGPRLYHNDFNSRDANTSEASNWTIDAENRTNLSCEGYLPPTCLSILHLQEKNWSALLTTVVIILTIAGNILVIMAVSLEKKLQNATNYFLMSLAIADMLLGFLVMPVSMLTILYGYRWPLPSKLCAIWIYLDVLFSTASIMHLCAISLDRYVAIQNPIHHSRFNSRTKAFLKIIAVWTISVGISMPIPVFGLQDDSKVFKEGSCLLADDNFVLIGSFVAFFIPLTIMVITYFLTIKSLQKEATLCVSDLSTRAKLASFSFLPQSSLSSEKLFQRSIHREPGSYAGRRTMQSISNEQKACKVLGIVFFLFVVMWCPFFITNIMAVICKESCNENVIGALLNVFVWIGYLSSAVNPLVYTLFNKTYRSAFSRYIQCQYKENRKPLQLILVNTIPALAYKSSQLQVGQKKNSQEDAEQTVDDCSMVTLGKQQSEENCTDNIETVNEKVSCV
pKi: −log10 of the molar value. Where a name gives a salt, the structure may show the parent alone.
Response key: condition met means pKi >= 8; condition not met means pKi < 8.

>>> group("CCN1CCN(c2nc(-c3ccc(OCC(C)(C)O)cc3)cc3ccsc23)CC1 [Example 260, dihydrochloride]")
"condition met"
>>> group("CCN1CCN(c2nc(-c3ccc(N4CCC(OC)CC4)nc3)cc3ccccc23)CC1 [Example 153, trihydrochloride]")
"condition met"
>>> group("CCN1CCN(c2nc(-c3ccc(C(F)CCO)cc3)cc3ccsc23)CC1 (stereo not drawn) [Example 256, Dihydrochloride]")
"condition not met"

Moving on to the next compound.
Request: Kindly determine if pKi recorded for CCN1CCN(c2nc(-c3ccc(C4=CCOCC4)nc3)cc3ccccc23)CC1 [Example 155, oxalate] is above or exactly 8.
Response: condition met

Data origin, for the record: patent US6875761B2
